system: OVCAR-8; experiment: NCI tumour cell line growth inhibition, 48 h
Activity calls are given as the source filed them. No stated cut-off is given here; in the data, active = GI50 up to about 1.1 µM and inactive = higher.
# Lookup of reported GI50 keyed by entry
assay endpoint: GI50

                                   compound  assay_endpoint             measured
0  CC1OC(n2cc(I)c(=O)[nH]c2=O)C=CC1=O (stereo not given)            GI50   17.1 µM (inactive)
1      O=C(/C=C/c1ccc(OCc2cccc(Cl)c2)cc1)NO            GI50   6.31 µM (inactive)
2  C=C(C)C(=O)[C@@]12C(=O)[C@@H](C)CC[C@H]1[C@H](C)C[C@@H]2C=C(C)C            GI50   30.7 µM (inactive)
3  O=[N+]([O-])c1cc(C(F)(F)F)ccc1S(=O)(=O)N[C@@H]1CCCC[C@H]1NS(=O)(=O)c1ccc(C(F)(F)F)cc1[N+](=O)[O-]            GI50   2.86 µM (inactive)
4  COC(=O)C1=CC2C(=O)OC1C1C(=O)NC(=O)C21 (stereo not given)            GI50  > 100 µM (inactive)
5  C=CCCC(=O)C(=[N+]=[N-])C(=O)CCC(=O)c1ccccc1            GI50   > 10 µM (inactive)
6  COc1ccc(C2C(=O)c3ccc(OC)cc3OC2c2cccnc2)cc1 (stereo not given)            GI50     56 µM (inactive)
7     C=C=C[P+](c1ccccc1)(c1ccccc1)c1ccccc1            GI50   3.13 µM (inactive)
8  COc1ccc(NC(=O)N(C)CC2(O)CCC(C(C)(C)C)CC2)cc1 (stereo not given)            GI50   60.8 µM (inactive)
9  COc1cc2c(cc1O)[C@H](C)C(c1ccc(Cl)cc1)O2 (stereo not given in full)            GI50   > 10 µM (inactive)

src = ChEMBL document CHEMBL1201862
